Target: Human α2δ-1 subunit of Cav2.2 calcium channel (Homo sapiens, UniProt P54289)
Sequence (P54289 25-1103): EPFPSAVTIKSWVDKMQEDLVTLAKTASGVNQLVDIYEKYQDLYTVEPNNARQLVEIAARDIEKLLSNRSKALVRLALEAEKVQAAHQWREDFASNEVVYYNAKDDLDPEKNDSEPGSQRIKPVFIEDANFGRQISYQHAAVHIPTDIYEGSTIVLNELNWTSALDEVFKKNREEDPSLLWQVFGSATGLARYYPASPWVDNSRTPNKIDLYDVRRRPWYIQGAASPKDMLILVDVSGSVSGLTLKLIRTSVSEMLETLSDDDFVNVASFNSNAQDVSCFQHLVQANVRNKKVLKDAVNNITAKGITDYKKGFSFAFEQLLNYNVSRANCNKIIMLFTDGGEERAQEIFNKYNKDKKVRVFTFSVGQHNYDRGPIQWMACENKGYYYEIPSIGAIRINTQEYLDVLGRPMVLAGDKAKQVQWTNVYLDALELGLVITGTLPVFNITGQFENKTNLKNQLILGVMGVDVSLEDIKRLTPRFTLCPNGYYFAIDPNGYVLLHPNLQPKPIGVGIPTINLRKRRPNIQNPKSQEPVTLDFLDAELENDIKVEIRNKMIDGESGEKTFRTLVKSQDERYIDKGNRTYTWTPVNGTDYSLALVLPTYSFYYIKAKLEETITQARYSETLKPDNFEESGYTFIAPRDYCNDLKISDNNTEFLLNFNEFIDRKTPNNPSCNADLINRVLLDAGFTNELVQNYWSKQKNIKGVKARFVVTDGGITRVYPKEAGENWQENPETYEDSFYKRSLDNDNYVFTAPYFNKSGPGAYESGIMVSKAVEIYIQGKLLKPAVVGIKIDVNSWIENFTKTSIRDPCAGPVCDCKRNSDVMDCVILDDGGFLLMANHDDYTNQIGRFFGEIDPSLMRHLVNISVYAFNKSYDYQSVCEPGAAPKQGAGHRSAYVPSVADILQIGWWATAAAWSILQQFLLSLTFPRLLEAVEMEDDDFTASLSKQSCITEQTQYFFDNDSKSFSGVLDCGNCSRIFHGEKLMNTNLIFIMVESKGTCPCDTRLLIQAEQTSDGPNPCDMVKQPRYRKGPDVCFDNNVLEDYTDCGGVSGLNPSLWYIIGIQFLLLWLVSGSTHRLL
Assay: Human α2δ-1 subunit of Cav2.2 calcium channel assay ([3H]-gabapentin binding)
Details: binding to the α2δ-1 subunit of voltage-gated calcium channels expressed as Ki; + also covers inhibition between 1% and 50%
Protocol: Biological Activity Pharmacological Study Human α2δ-1 Subunit of Cav2.2 Calcium Channel Assay Human α2δ-1 enriched membranes (2.5 μg) were incubated with 15 nM of radiolabeled [^3H]-Gabapentin in assay buffer containing Hepes-KOH 10 mM, pH 7.4. NSB (non specific binding) was measured by adding 10 μM pregabalin. […] Filter plates were dried at 60° C. for 1 h and 30 μL of scintillation cocktail were added to each well before radioactivity reading. […]
pKi: −log10 of the molar value.
endpoint name: pKi

1. Cc1nn2c(C3CCCN(Cc4ccc(Cl)cc4)C3)ccnc2c1N(C)C (stereo not shown)
< 5.30
2. CCOc1ccc(-c2cc3nccc(C4CCCN(Cc5ccccc5)C4)n3n2)cc1 (stereo not shown)
< 5.30
3. c1ccc(CN2CCCC(c3ccnc4ccnn34)C2)cc1 (stereo not shown)
5.30 to 6.30

Form field pKi for item Cc1nn2c(C3CCCN(Cc4ccc(Cl)cc4)C3)ccnc2c1CN1CCS(=O)(=O)CC1 (stereo not shown) on Human α2δ-1 subunit of Cav2.2 calcium channel (Homo sapiens, UniProt P54289): 5.30 to 6.30

Form field pKi for item `Clc1nn2c([C@@H]3CCCN(Cc4ccccc4)C3)ccnc2c1CNCC1CCOCC1` on Human α2δ-1 subunit of Cav2.2 calcium channel (Homo sapiens, UniProt P54289): < 5.30

Form field pKi for item Cc1nn2c(C3CCCN(Cc4ccc(Cl)cc4)C3)ccnc2c1-c1cccc(C(=O)N(C)C)c1 (stereo not shown) on Human α2δ-1 subunit of Cav2.2 calcium channel (Homo sapiens, UniProt P54289): < 5.30

Form field pKi for item Cc1cnc2c(Br)cnn2c1C1CCCN(Cc2ccccc2)C1 (stereo not shown) on Human α2δ-1 subunit of Cav2.2 calcium channel (Homo sapiens, UniProt P54289): < 5.30

* * *

target: Human α2δ-1 subunit of Cav2.2 calcium channel (Homo sapiens); experiment: Human α2δ-1 subunit of Cav2.2 calcium channel assay ([3H]-gabapentin binding); conditions: binding to the α2δ-1 subunit of voltage-gated calcium channels expressed as Ki; + also covers inhibition between 1% and 50%
# Ki annotations

1) Cc1nn2c(C3CCCN(Cc4ccc(Cl)cc4)C3)ccnc2c1CN1CCNC(=O)C1 (stereo not shown)
> 5 µM
2) CCc1nn2c(C3CCCN(Cc4ccc(Cl)cc4)C3)ccnc2c1CNCC1CCOCC1 (stereo not shown)
< 0.5 µM
3) Cc1nn2c([C@@H]3CCCN([C@@H](CO)c4ccccc4)C3)ccnc2c1-c1ccncc1
0.5 to 5 µM
4) Cc1nn2c(C3CCCN(Cc4ccc(Cl)cc4)C3)ccnc2c1CN1C[C@@H](C)O[C@@H](C)C1 (stereo partly shown)
0.5 to 5 µM
5) Cc1nn2c(C3CCCN(Cc4ccccc4)C3)ccnc2c1N(C)Cc1ccccc1 (stereo not shown)
> 5 µM

Value of measured Ki for the entry CN(c1cc2nccc(C3CCCN(Cc4ccccc4)C3)n2n1)C1CCNCC1 (stereo not shown) : 0.5 to 5 µM

Value of measured Ki for the entry COc1ccccc1-c1cc2nccc(C3CCCN(Cc4ccccc4)C3)n2n1 (stereo not shown) : 0.5 to 5 µM

Value of measured Ki for the entry `Cc1nn2c([C@@H]3CCCN(Cc4cccc(C#N)c4)C3)ccnc2c1CNCC1CCOCC1` : > 5 µM

Value of measured Ki for the entry CNCCN(C)c1cc2nccc(C3CCCN(Cc4ccccc4)C3)n2n1 (stereo not shown) : 0.5 to 5 µM

Value of measured Ki for the entry Brc1cnn2c(C3CCCN(Cc4ccccc4)C3)ccnc12 (stereo not shown) : 0.5 to 5 µM

Value of measured Ki for the entry Cc1nn2c(C3CCCN(CC(C)C)C3)ccnc2c1-c1ccncc1 (stereo not shown) : > 5 µM

Value of measured Ki for the entry Cc1cnc2c(-c3ccncc3)cnn2c1C1CCCN(CCc2ccccc2)C1 (stereo not shown) : > 5 µM

Value of measured Ki for the entry Cc1nn2c(C3CCCN(Cc4ccc(Cl)cc4)C3)ccnc2c1CNCC1CCN(S(C)(=O)=O)CC1 (stereo not shown) : 0.5 to 5 µM

Value of measured Ki for the entry CN(CCN)c1cc2nccc(C3CCCN(Cc4ccccc4)C3)n2n1 (stereo not shown) : 0.5 to 5 µM

Value of measured Ki for the entry `Cc1nn2c([C@@H]3CCCN(Cc4ccc(Cl)cc4)C3)ccnc2c1CN[C@@H](C)C1CCOCC1` : > 5 µM

Value of measured Ki for the entry COc1nn2c(C3CCCN(Cc4ccccc4)C3)ccnc2c1CNCC1CCOCC1 (stereo not shown) : 0.5 to 5 µM
